Measured inhibition at 0.1 µM accompanies every entry in the list below.
- target_entity: calcium channel (blood vessel, thoracic aorta) (Rattus norvegicus, UniProt P22002)
- Sequence (P22002 whole entry): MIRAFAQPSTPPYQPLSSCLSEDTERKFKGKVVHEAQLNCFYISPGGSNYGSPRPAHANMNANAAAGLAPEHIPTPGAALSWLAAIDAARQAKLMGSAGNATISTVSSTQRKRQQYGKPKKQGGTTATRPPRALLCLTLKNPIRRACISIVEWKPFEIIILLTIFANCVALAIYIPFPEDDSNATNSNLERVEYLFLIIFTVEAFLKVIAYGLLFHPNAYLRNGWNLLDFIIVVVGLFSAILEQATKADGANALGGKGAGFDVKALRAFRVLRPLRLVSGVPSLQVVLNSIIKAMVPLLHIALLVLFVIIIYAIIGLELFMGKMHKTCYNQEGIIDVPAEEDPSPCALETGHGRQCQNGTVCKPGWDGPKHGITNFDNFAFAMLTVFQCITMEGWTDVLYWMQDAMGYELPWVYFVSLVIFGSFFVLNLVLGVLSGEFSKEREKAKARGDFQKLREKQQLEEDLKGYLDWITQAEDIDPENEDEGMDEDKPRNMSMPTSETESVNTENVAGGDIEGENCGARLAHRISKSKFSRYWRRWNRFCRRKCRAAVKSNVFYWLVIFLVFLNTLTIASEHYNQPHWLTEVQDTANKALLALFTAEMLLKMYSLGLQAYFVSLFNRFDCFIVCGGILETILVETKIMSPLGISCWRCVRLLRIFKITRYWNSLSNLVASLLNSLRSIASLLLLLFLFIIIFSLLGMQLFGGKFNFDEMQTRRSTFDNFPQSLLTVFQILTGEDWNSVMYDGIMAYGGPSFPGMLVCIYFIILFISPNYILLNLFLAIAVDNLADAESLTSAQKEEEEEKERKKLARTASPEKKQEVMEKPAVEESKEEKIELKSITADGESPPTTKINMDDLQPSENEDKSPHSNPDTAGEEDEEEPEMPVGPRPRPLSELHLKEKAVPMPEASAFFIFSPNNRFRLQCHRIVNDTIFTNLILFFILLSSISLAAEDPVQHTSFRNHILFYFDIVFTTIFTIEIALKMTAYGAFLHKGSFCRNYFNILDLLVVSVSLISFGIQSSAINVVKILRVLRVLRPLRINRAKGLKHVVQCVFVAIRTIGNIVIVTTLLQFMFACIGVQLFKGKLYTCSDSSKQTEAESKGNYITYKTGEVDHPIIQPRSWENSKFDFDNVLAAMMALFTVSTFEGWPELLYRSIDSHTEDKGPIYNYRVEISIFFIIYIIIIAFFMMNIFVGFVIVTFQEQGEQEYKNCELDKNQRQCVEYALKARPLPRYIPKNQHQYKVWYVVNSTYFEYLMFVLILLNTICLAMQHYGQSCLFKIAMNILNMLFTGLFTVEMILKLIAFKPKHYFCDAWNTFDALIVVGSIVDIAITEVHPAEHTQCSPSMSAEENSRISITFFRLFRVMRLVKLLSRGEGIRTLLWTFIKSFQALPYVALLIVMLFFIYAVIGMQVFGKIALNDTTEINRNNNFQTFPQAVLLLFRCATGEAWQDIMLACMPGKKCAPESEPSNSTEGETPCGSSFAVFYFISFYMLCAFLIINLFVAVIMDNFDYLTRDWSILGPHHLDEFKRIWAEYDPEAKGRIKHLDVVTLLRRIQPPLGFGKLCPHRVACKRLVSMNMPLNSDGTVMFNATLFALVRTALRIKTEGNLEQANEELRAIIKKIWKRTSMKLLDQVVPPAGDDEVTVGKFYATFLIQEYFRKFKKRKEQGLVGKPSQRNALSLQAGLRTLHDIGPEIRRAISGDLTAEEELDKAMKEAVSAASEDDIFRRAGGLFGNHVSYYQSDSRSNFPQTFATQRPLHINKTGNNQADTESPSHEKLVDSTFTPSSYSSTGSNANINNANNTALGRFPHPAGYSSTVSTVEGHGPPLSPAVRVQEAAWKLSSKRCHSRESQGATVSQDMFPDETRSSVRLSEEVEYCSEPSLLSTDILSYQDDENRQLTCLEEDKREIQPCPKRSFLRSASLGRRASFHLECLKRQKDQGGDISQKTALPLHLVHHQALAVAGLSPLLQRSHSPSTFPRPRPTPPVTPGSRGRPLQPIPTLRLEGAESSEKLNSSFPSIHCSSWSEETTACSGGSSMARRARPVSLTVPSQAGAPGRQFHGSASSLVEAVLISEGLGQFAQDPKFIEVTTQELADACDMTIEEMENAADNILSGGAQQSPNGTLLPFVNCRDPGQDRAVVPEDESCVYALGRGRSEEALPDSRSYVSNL
- protocol_description: In vitro calcium channel antagonistic effect (blood vessel): inhibition of high potassium contraction of helical thoracic aorta samples
- measurement_conditions: high potassium (45.0 mM KCl) contraction, 10^−7 M test compound, 30 minute pretreatment, read-out: Inhibition rate (%) (conc: 10^−7 M)
Counter-ions that a name gives are not always drawn.
recorded_metric: inhibition at 0.1 µM (%)

COc1ccc(CCCN2CCCC[C@@H]2CN2c3ccccc3COc3ccccc32)cc1 [Example 4, Hydrochloride] : 32
c1ccc2c(c1)COc1ccccc1N2C[C@H]1CCCCN1CCc1ccc2c(c1)OCO2 [Example 5, Hydrochloride] : 27
COc1ccc(CCN2CC[C@@H](N3c4ccccc4COc4ccccc43)C2)cc1.Cl [Example 8, Hydrochloride] : 52
CN(CCc1ccc(Cl)cc1)CCN1c2ccccc2COc2ccccc21 [Example 18, Hydrochloride] : 34
COc1ccc(CCCN(C)CCN2c3ccccc3COc3ccccc32)cc1 [Example 16, Hydrochloride] : 28
CN(C)c1ccc(CCN2CC[C@@H](N3c4ccccc4COc4ccccc43)C2)cc1.Cl [Example 10, Hydrochloride] : 59
CN(CCc1ccc(N(C)C)cc1)CCN1c2ccccc2COc2ccccc21 [Example 19, Dihydrochloride] : 39

* * *

- target_entity: calcium channel (blood vessel, thoracic aorta) (Rattus norvegicus, UniProt P22002)
- protocol_description: In vitro calcium channel antagonistic effect (blood vessel): inhibition of high potassium contraction of helical thoracic aorta samples
- measurement_conditions: high potassium (45.0 mM KCl) contraction, 10^−7 M test compound, 30 minute pretreatment, read-out: Inhibition rate (%) (conc: 10^−7 M)
Structures can show the parent of a compound that is named as a salt.
Parameter threshold = 30%. Response is y when inhibition at 0.1 µM meets or exceeds it, else n.

Clc1ccc(CCN2CC[C@@H](N3c4ccccc4COc4ccccc43)C2)cc1 [Example 13, Hydrochloride] : y
CN(CCc1cccc(N(C)C)c1)CCN1c2ccccc2COc2ccccc21 [Example 20, Dihydrochloride] : n
COc1ccc(CCN2CCC[C@@H]2CN2c3ccccc3COc3ccccc32)cc1 [Compound B, reference compound] : n
COc1cccc(CCN2CCCC[C@@H]2CN2c3ccccc3COc3ccccc32)c1 [Example 3, Hydrochloride] : y
COc1ccc(CCN(C)CCN2c3ccccc3COc3ccccc32)cc1.Cl [Example 14, Hydrochloride] : y
c1ccc2c(c1)COc1ccccc1N2[C@@H]1CCN(CCc2ccc3c(c2)OCO3)C1 [Example 12, Hydrochloride] : y
Clc1ccc(CCN2CCCC[C@@H]2CN2c3ccccc3COc3ccccc32)cc1 [Example 6, Hydrochloride] : n
CN(C)c1ccc(CCN2CCCC[C@@H]2CN2c3ccccc3COc3ccccc32)cc1 [Example 7, Dihydrochloride] : n
COc1ccc(CCN2CCCC[C@@H]2CN2c3ccccc3COc3ccccc32)cc1.Cl [Example 1, Hydrochloride] : y
COc1cccc(CCN(C)CCN2c3ccccc3COc3ccccc32)c1 [Example 15, Hydrochloride] : n
COc1ccc(CCN2CCCC2CN2c3ccccc3CSc3ccccc32)cc1 (stereo not shown) [Compound A, reference compound] : n
COc1ccc(CCCN2CC[C@@H](N3c4ccccc4COc4ccccc43)C2)cc1 [Example 11, Hydrochloride] : y

* * *

Catalogue of inhibition at 0.1 µM values
- target_entity: calcium channel (ileum) (Rattus norvegicus)
- protocol_description: In vitro calcium channel antagonistic effect (ileum): inhibition of high potassium contraction of ileum samples
- measurement_conditions: high potassium (45.0 mM KCl) contraction, 10^−7 M test compound, 30 minute pretreatment, read-out: Inhibition rate (%) (conc.: 10^−7M)
- Procedure: In vitro calcium channel antagonistic effect (ileum) The ileum of each of male Crj:CD rats (8 to 12 weeks old) was extracted at a part 3 cm apart from the ileocecal region. The ileum sample was suspended in 37° C. […] For examining the change in tensile strength of the ileum, the isotonicity thereof was recorded on a pen-writing recorder through a transducer. […] The high potassium contraction-inhibiting effect of a test compound was evaluated by 30 minute pretreatment. […]
Structures can show the parent of a compound that is named as a salt.
recorded_metric: inhibition at 0.1 µM

c1ccc2c(c1)COc1ccccc1N2[C@@H]1CCN(CCc2ccc3c(c2)OCO3)C1 [Example 12, Hydrochloride] : 77%
CN(CCc1cccc(N(C)C)c1)CCN1c2ccccc2COc2ccccc21 [Example 20, Dihydrochloride] : 50%
CN(CCc1ccc(Cl)cc1)CCN1c2ccccc2COc2ccccc21 [Example 18, Hydrochloride] : 70%
CN(C)c1ccc(CCN2CC[C@@H](N3c4ccccc4COc4ccccc43)C2)cc1.Cl [Example 10, Hydrochloride] : 116%
COc1ccc(CCN2CC[C@@H](N3c4ccccc4COc4ccccc43)C2)cc1.Cl [Example 8, Hydrochloride] : 100%
COc1ccc(CCCN2CC[C@@H](N3c4ccccc4COc4ccccc43)C2)cc1 [Example 11, Hydrochloride] : 83%
Clc1ccc(CCN2CCCC[C@@H]2CN2c3ccccc3COc3ccccc32)cc1 [Example 6, Hydrochloride] : 75%
COc1ccc(CCCN2CCCC[C@@H]2CN2c3ccccc3COc3ccccc32)cc1 [Example 4, Hydrochloride] : 64%
COc1ccc(CCN2CCCC[C@@H]2CN2c3ccccc3COc3ccccc32)cc1.Cl [Example 1, Hydrochloride] : 90%
Clc1ccc(CCN2CC[C@@H](N3c4ccccc4COc4ccccc43)C2)cc1 [Example 13, Hydrochloride] : 76%
c1ccc2c(c1)COc1ccccc1N2C[C@H]1CCCCN1CCc1ccc2c(c1)OCO2 [Example 5, Hydrochloride] : 66%
COc1cccc(CCN(C)CCN2c3ccccc3COc3ccccc32)c1 [Example 15, Hydrochloride] : 82%
COc1ccc(CCN2CCC[C@@H]2CN2c3ccccc3COc3ccccc32)cc1 [Compound B, reference compound] : 67%
CN(CCc1ccc(N(C)C)cc1)CCN1c2ccccc2COc2ccccc21 [Example 19, Dihydrochloride] : 76%
CN(C)c1ccc(CCN2CCCC[C@@H]2CN2c3ccccc3COc3ccccc32)cc1 [Example 7, Dihydrochloride] : 78%
COc1cccc(CCN2CCCC[C@@H]2CN2c3ccccc3COc3ccccc32)c1 [Example 3, Hydrochloride] : 61%

Source of measurements: patent US6528504B2
